The entries below come with measured IC50 values attached.
target: GlyT1 (Homo sapiens, UniProt P48067)
Construct: Human placental choriocarcinoma cells endogenously expressing GlyT1
Sequence (P48067 whole entry): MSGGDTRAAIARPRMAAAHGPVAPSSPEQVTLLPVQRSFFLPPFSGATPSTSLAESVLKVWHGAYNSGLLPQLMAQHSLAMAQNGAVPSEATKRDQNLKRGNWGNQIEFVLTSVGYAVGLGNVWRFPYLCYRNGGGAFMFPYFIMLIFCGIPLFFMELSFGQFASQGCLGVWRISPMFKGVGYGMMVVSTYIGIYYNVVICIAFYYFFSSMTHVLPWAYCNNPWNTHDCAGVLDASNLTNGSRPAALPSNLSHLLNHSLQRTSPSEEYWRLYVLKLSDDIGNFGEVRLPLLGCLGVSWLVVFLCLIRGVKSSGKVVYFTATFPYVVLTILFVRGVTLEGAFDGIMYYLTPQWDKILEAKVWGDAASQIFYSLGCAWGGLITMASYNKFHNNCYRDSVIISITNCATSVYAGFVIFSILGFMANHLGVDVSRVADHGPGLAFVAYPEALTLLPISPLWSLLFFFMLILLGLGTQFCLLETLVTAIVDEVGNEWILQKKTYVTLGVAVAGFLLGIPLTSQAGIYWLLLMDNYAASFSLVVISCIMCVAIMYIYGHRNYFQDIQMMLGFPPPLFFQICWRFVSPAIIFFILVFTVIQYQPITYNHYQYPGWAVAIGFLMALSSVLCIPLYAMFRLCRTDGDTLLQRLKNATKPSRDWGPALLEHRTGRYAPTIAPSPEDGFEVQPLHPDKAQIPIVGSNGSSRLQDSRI
assay_text: [14C]-glycine uptake in JAR cells (scintillation proximity, Cytostar T plates)
conditions_used: read-out: Potency

{"compound": "O=C(NCC1(c2ccccn2)C2CN(S(=O)(=O)c3ccccn3)CC21)c1ccc(Cl)cc1Cl (stereo not shown) [Compound 12g]", "readout_units": "nM", "modifier_sign": ">", "IC50": 20000}
{"compound": "CCCS(=O)(=O)N1CC2C(C1)C2(CNC(=O)c1ccc(Cl)cc1Cl)CC1CC1 (stereo not shown) [Compound 8b]", "readout_units": "nM", "modifier_sign": "=", "IC50": 361}
{"compound": "CCCS(=O)(=O)N1CC2C(C1)C2(CNC(=O)c1ccccc1F)CC1CC1 (stereo not shown) [Compound 9a]", "readout_units": "nM", "modifier_sign": "=", "IC50": 2100}
{"compound": "CC(C)S(=O)(=O)N1CC2C(C1)C2(CNC(=O)c1ccc(Cl)cc1Cl)CC1CC1 (stereo not shown) [Compound 8c]", "readout_units": "nM", "modifier_sign": "=", "IC50": 3400}
{"compound": "O=C(NCC1(CC2CC2)C2CN(S(=O)(=O)CC3CC3)CC21)c1c(F)cccc1F (stereo not shown) [Compound 9j]", "readout_units": "nM", "modifier_sign": "=", "IC50": 1020}
{"compound": "CCS(=O)(=O)N1CC2C(C1)C2(CNC(=O)c1ccc(Cl)cc1Cl)CC1CC1 (stereo not shown) [Compound 8a]", "readout_units": "nM", "modifier_sign": "=", "IC50": 1300}
{"compound": "CCS(=O)(=O)N1CC2C(C1)C2(CNC(=O)c1ccc(Cl)cc1Cl)c1ccccn1 (stereo not shown) [Compound 12b]", "readout_units": "nM", "modifier_sign": ">", "IC50": 20000}
{"compound": "O=C(NCC1(CC2CC2)C2CN(S(=O)(=O)CC3CC3)CC21)c1ccc(Cl)cc1Cl (stereo not shown) [Compound 8d]", "readout_units": "nM", "modifier_sign": "=", "IC50": 231}
{"compound": "O=C(NCC1(CC2CC2)C2CN(S(=O)(=O)CC3CC3)CC21)c1ccc(F)cc1F (stereo not shown) [Compound 9i]", "readout_units": "nM", "modifier_sign": "=", "IC50": 1020}
{"compound": "CS(=O)(=O)N1CC2C(C1)C2(CNC(=O)c1ccc(Cl)cc1Cl)c1ccccn1 (stereo not shown) [Compound 12a]", "readout_units": "nM", "modifier_sign": ">", "IC50": 20000}
{"compound": "Cn1cnc(S(=O)(=O)N2CC3C(C2)C3(CNC(=O)c2ccc(Cl)cc2Cl)c2ccccn2)c1 (stereo not shown) [Compound 12d]", "readout_units": "nM", "modifier_sign": "=", "IC50": 240}
{"compound": "CCCS(=O)(=O)N1CC2C(C1)C2(CNC(=O)c1ccccc1Cl)CC1CC1 (stereo not shown) [Compound 9b]", "readout_units": "nM", "modifier_sign": "=", "IC50": 1200}
{"compound": "Cn1cnc(S(=O)(=O)N2CC3C(C2)C3(CNC(=O)c2ccc(Cl)cc2Cl)CC2CC2)c1 (stereo not shown) [Compound 6a]", "readout_units": "nM", "modifier_sign": "=", "IC50": 4.1}
{"compound": "Cn1cc(S(=O)(=O)N2CC3C(C2)C3(CNC(=O)c2ccc(Cl)cc2Cl)c2ccccn2)cn1 (stereo not shown) [Compound 12e]", "readout_units": "nM", "modifier_sign": ">", "IC50": 20000}
{"compound": "Cn1cnc(S(=O)(=O)N2CC3C(C2)C3(CNC(=O)c2ccc(F)cc2F)CC2CC2)c1 (stereo not shown) [Compound 6h]", "readout_units": "nM", "modifier_sign": "=", "IC50": 44}
{"compound": "Cn1cnc(S(=O)(=O)N2CC3C(C2)C3(CNC(=O)c2ccccc2C(F)(F)F)c2ccccn2)c1 (stereo not shown) [Compound 13b]", "readout_units": "nM", "modifier_sign": "=", "IC50": 190}
